# ASSAY_OVERVIEW: Acute toxicity
# EXPERIMENTAL_PARAMETERS: rat, in vivo; oral, male Wister rats, observed for 7 days
VALUE_TYPE: LD50 at 168 h

Record summary for CC(=O)SCC(CC(=O)c1ccccc1)C(=O)O (stereo not shown) : reported LD50 at 168 h = > 1200 mg/kg

---

Please go through the items and note down their Edema volume.
# System: adjuvant arthritis in Lewis rats
# ASSAY_OVERVIEW: Effect on adjuvant arthritis in Lewis rats (Cellular immunostimulation)
# Type: in vivo
# EXPERIMENTAL_PARAMETERS: 100 mg/Kg orally once a day; hind paw; 21 days after sensitization
Number only, in mL; omit the unit.

The recorded Edema volume for O=C(CC(CSC(=O)c1ccccc1)C(=O)O)c1ccccc1 (stereo not shown) is 3.63

Record summary for COc1ccc(C(=O)CC(CSC(C)=O)C(=O)O)cc1 (stereo not shown) : reported Edema volume = 3.41

The compound CC(=O)SCC(CC(=O)c1ccc(Cl)cc1)C(=O)O (stereo not shown) showed Edema volume equal to 3.22

Reported Edema volume of CC(=O)SCC(CC(=O)c1ccc(Br)cc1)C(=O)O (stereo not shown) : 3.27

The reported value for CC(=O)SCC(CC(=O)c1ccc(F)cc1)C(=O)O (stereo not shown) in terms of Edema volume is 3.46

Input CCOC(=O)C(CSC(C)=O)CC(=O)c1ccccc1 (stereo not shown) . Output Edema volume: 3.18

Record CC(C)(S)[C@@H](N)C(=O)O [D-penicillamine, reference compound] . Reported Edema volume: 3.76
